Experiment: VP16 counterscreen qHTS for inhibitors of ROR gamma transcriptional activity;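 further: Gal4-VP16 expression switched on by copper sulfate through the metallothionein promoter; nearly all actives have a fitted effect of over 50% in size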
Settings: Drosophila S2 Gal4-VP16 UAS-luciferase, luminescence, 20 h; series mostly up to 53.6 µM
About 11,000 (3.5%) of roughly 310,000 compounds were called active. About 8% were inconclusive and are not listed. The call rests on the fitted dose curve; in most records, active means well fitted inhibition curve with a large enough effect; inconclusive means small, poorly fitted or top-dose-only effect, or effect the other way; inactive means flat fitted curve, though single readings scatter. What follows is part of a selection rich in actives, with near analogues and random picks from the rest.
Outcomes you can answer with include only these: active, inactive

Here are 3 molecules together with their reported answers.
Molecule	Answer Label
CC(C)c1nc(SCC(=O)Nc2cccc(C(=O)O)c2)c2c3c(sc2n1)CCCC3	inactive
COc1ccc(S(=O)(=O)Nc2cccnc2)c(Cl)c1Cl	inactive
CCC(O)CNc1nc(-n2nc(C)cc2C)nc2sc3c(c12)CC(C)(C)OC3 (stereo not given)	active

What did this assay record as the result for COc1ccccc1Oc1ccc(S(=O)(=O)Nc2cccnc2)cc1 ? active

Repeat for the following molecule: COC(=O)c1ccc(CSc2ccc3nnc(-c4ccccc4)n3n2)o1 active

Repeat for the following molecule: CC/C(C)=N/Nc1nc2sc3c(c2c(=O)[nH]1)CC(C)(C)OC3 inactive

----------
Assay: VP16 counterscreen qHTS for inhibitors of ROR gamma transcriptional activity;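 further: Gal4-VP16 expression switched on by copper sulfate through the metallothionein promoter; nearly all actives have a fitted effect of over 50% in size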
Settings: Drosophila S2 Gal4-VP16 UAS-luciferase, luminescence, 20 h; series mostly up to 53.6 µM
In all, about 310,000 compounds went through this assay and about 11,000 (3.5%) were called active. About 8% were inconclusive and are not listed. The call rests on the fitted dose curve; in most records, active means well fitted inhibition curve with a large enough effect; inconclusive means small, poorly fitted or top-dose-only effect, or effect the other way; inactive means flat fitted curve, though single readings scatter. Only a selection was taken, and actives are over-represented in it overall.
Outcomes you can answer with include only these: 1 = active, 0 = inactive

Here are 3 compounds together with their reported answers.
Compound	Answer Label
CN1CCN(C(=O)c2cnn(-c3ccccc3)c2NC(=O)c2ccc([N+](=O)[O-])cc2)CC1	0
CC(C)(C)C(=O)Cn1c(NCCO)nc2ccccc21	0
OCCNc1nc2ccccc2n1-c1ncnc2sc3c(c12)CCC3	1

What did this assay record as the result for CCOC(=O)c1c(C)[nH]c(C)c1S(=O)(=O)NCCCc1ccco1 ? 0

Repeat for the following compound: O=C(CSc1nc2nccnc2c(=O)n1Cc1cccs1)Nc1ccccc1F 0

Repeat for the following compound: COc1ccc(CNC(=O)Cc2ccc(-c3ccccc3)cc2)cc1OC 0

Repeat for the following compound: O=C(CSc1ccc(-c2ccc(Br)cc2)nn1)NCC1CCCO1 (stereo not given) 0

Repeat for the following compound: O=C1Nc2cc(C(=O)N3CCN(c4ccc(F)cc4)CC3)ccc2NC1CSCc1cccc(F)c1 (stereo not given) 0

Repeat for the following compound: Cn1nccc1C(=O)N1CCCC(C(=O)c2ccc(Oc3ccccc3)cc2)C1 (stereo not given) 0

Repeat for the following compound: CCc1ccc(NC(=O)CC2C(=O)NCCN2C(=S)Nc2ccccc2)cc1 (stereo not given) 0

----------
Assay: VP16 counterscreen qHTS for inhibitors of ROR gamma transcriptional activity;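 further: Gal4-VP16 expression switched on by copper sulfate through the metallothionein promoter; nearly all actives have a fitted effect of over 50% in size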; further: potency means the concentration at half of the fitted maximal effect
Conditions: Drosophila S2 Gal4-VP16 UAS-luciferase, luminescence, 20 h; series mostly up to 53.6 µM
Among all 310,000 compounds or so, about 11,000 (3.5%) were called active. Roughly 8% stayed inconclusive and do not appear here. This excerpt belongs to a sample that is enriched for actives.
Property: Potency

Compound	Potency
Cc1ccc(-c2csc(-c3c[nH]c4ccccc34)n2)cc1	inactive
COc1cccc(NC(=O)CN(C)C(=O)Cc2ccc(Cl)cc2Cl)c1	inactive
CCOC(=O)N/N=C/c1cn(Cc2ccccc2Cl)c2ccccc12	inactive
CCOC(=O)c1c(S(=O)(=O)NCC(=O)Nc2ccc(C)cc2)c(C)n(C)c1C	inactive
C/C(=N/OC(=O)c1ccc(Br)cc1)c1ccc(C)cc1	inactive
Oc1ccc(Br)cc1/C=N/Nc1ccccn1	10 µM (active)
COc1ccc(NC(=O)c2cn(-c3ccccc3)nc2SC)cc1	inactive
Cn1c(-c2ccco2)nc2cc3ccccc3cc21	11.2 µM (active)
COC(=O)N/N=C/c1cn(CCCOc2ccc(C)cc2)c2ccccc12	1 µM (active)
COc1ccc(-c2nn(-c3ccccc3)cc2C(=O)Nc2nccs2)cc1OC	22.4 µM (active)

Param item = NS(=O)(=O)c1ccc(CCNS(=O)(=O)c2cccc3cccnc23)cc1 ; retrieve measured Potency. inactive

Repeat for the following compound: O=C(Nc1ccc(Br)cc1)c1cc(S(=O)(=O)Nc2ccccn2)ccc1Cl inactive

Repeat for the following compound: CCC(=O)Nc1nc(C)c(C(=O)Nc2cccc(Cl)c2)s1 inactive

Repeat for the following compound: CC(C)OCCCNC(=O)c1cc(Sc2ccc(F)cc2)nc2ccccc12 inactive

Repeat for the following compound: CN(C)/N=C/c1cn(-c2ccccc2)nc1-c1cccnc1 inactive

Repeat for the following compound: O=C(CNC(=O)OCc1ccccc1)NC1CCCCNC1=O (stereo not drawn) inactive

Repeat for the following compound: CC(=O)Cc1nsc(NC(=O)c2ccc(COc3ccc(C)cc3)o2)n1 inactive

Repeat for the following compound: COc1ccc(-c2nn(-c3ccccc3)cc2C(=O)Nc2nc(CC(C)=O)ns2)cc1 12.6 µM (active)

Repeat for the following compound: C=CCn1cc(Cl)cc(C(=O)Nc2ccccc2)c1=O inactive

Repeat for the following compound: O=[N+]([O-])c1ccc(O)c(/C=N/Nc2ccccc2[N+](=O)[O-])c1 inactive

Repeat for the following compound: CN1C/C(=C/c2cccs2)C(=O)/C(=C\c2cccs2)C1 inactive

Repeat for the following compound: Cc1cccc(C(=O)Nc2nnc(Cc3c[nH]c4ccccc34)s2)c1 inactive

Repeat for the following compound: Cc1nn(CCCC(=O)NCc2ccccc2Cl)c(=O)c2nccn12 inactive
